# Test system: SH-SY5Y
# Method Summary: Neuroprotective activity against H2O2-induced human SH-SY5Y cell damage assessed as protective rate at 50 uM pretreated for 1 hr followed by H2O2 addition measured after 4 hrs by MTT assay (reference value: 68.2 +/- 1.34%)
# Assay type: functional
# Conditions Used: time 5 hrs
The following compounds are shown together with reported Activity values.
The reply must contain the numeric value and, after it, the unit.

CCN1C[C@]2(COC(=O)c3ccccc3NC(=O)c3ccccc3NC(=O)C(C)(C)O)CC[C@H](OC)C34C1C(C[C@@H]32)[C@@]1(OC(C)=O)C[C@H](OC)C2C[C@@H]4[C@@H]1[C@H]2OC(C)=O 54.2%
CCN1C[C@]2(COC(=O)c3ccccc3NC(=O)c3ccccc3NC(=O)C(C)(C)O)CC[C@H](OC)C34C1C(C[C@@H]32)[C@@]1(O)C[C@H](OC)C2C[C@@H]4[C@@H]1[C@H]2OC(C)=O 48.6%
CCN1C[C@]2(COC(=O)c3ccccc3NC(=O)c3ccccc3NC(=O)C(C)C)CC[C@H](OC)C34C1C(C[C@@H]32)[C@@]1(O)C[C@H](OC)C2C[C@@H]4[C@@H]1[C@H]2OC(=O)c1ccccc1NC(=O)c1ccccc1NC(=O)C(C)C 5.5%

Kindly review the next compound as well.
q: What Activity appears in the records for this compound with SH-SY5Y? CCCC(=O)Nc1ccccc1C(=O)Nc1ccccc1C(=O)OC[C@@]12CC[C@H](OC)C34C(C(C[C@@H]31)[C@@]1(O)C[C@H](OC)C3C[C@@H]4[C@@H]1[C@H]3OC(=O)c1ccccc1NC(=O)c1ccccc1NC(=O)CCC)N(CC)C2
a: 21.3%

====

# Test system: SH-SY5Y
# Method Summary: Cytotoxicity against H2O2 induced human neuroblastoma SH-SY5Y cells assessed as cell viability measured after 5 hrs by MTT assay
# Assay type: cell-based
Measurement Label: Activity

In the examples that follow, each entry is paired with its recorded Activity.
Molecule	Measurement Label	Recorded Result
CCO[C@]12C[C@H](OC)C3C[C@H]([C@@H]1[C@H]3O)C13C4C2C[C@@H]1[C@@](COC(=O)c1ccccc1NC(=O)c1ccccc1NC(=O)C(C)(C)O)(CC[C@@H]3OC)CN4CC	Activity	Non-Toxic
CCN1C[C@]2(COC(=O)c3ccccc3NC(=O)c3ccccc3NC(=O)C(C)C)CC[C@H](OC)C34C1C(C[C@@H]32)[C@@]1(O)C[C@H](OC)C2C[C@@H]4[C@@H]1[C@H]2OC(=O)c1ccccc1NC(=O)c1ccccc1NC(=O)C(C)C	Activity	Non-Toxic
CCN1C[C@]2(COC(=O)c3ccccc3NC(=O)c3ccccc3NC(=O)C(Cl)(Cl)Cl)CC[C@H](OC)C34C1C(C[C@@H]32)[C@@]1(O)C[C@H](OC)C2C[C@@H]4[C@@H]1[C@H]2O	Activity	Non-Toxic
CCN1C[C@]2(COC(=O)c3ccccc3NC(=O)c3ccccc3NC(=O)C(C)(C)O)CC[C@H](OC)C34C1C(C[C@@H]32)[C@@]1(O)C[C@H](OC)C2C[C@@H]4[C@@H]1[C@H]2OC(C)=O	Activity	Non-Toxic
CCN1C[C@]2(COC(=O)c3ccccc3NC(=O)c3ccccc3NC(=O)c3ccccc3)CC[C@H](OC)C34C1C(C[C@@H]32)[C@@]1(O)C[C@H](OC)C2C[C@@H]4[C@@H]1[C@H]2OC(=O)c1ccccc1NC(=O)c1ccccc1NC(=O)c1ccccc1	Activity	Non-Toxic
CCCC(=O)Nc1ccccc1C(=O)Nc1ccccc1C(=O)OC[C@@]12CC[C@H](OC)C34C(C(C[C@@H]31)[C@@]1(O)C[C@H](OC)C3C[C@@H]4[C@@H]1[C@H]3OC(=O)c1ccccc1NC(=O)c1ccccc1NC(=O)CCC)N(CC)C2	Activity	Non-Toxic

q: What does the record list as Activity for CCN1C[C@]2(COC(=O)c3ccccc3NC(=O)c3ccccc3NC(C)=O)CC[C@H](OC)C34C1C(C[C@@H]32)[C@@]1(O)C[C@H](OC)C2C[C@@H]4[C@@H]1[C@H]2OC(=O)c1ccccc1NC(=O)c1ccccc1NC(C)=O ?
a: Non-Toxic

q: What does the record list as Activity for CCCCC(CC)C(=O)Nc1ccccc1C(=O)Nc1ccccc1C(=O)OC[C@@]12CC[C@H](OC)C34C(C(C[C@@H]31)[C@@]1(O)C[C@H](OC)C3C[C@@H]4[C@@H]1[C@H]3O)N(CC)C2 (some centres undefined) ?
a: Non-Toxic

q: What does the record list as Activity for CCN1C[C@]2(COC(=O)c3ccccc3NC(=O)c3ccccc3NC(=O)C(C)(C)O)CC[C@H](OC)C34C1C(C[C@@H]32)[C@@]1(OC(C)=O)C[C@H](OC)C2C[C@@H]4[C@@H]1[C@H]2OC(C)=O ?
a: Non-Toxic

====

# Test system: SH-SY5Y
# Method Summary: Neuroprotective activity against H2O2-induced human SH-SY5Y cell damage assessed as protective rate at 50 uM pretreated for 1 hr followed by H2O2 addition measured after 4 hrs by MTT assay (reference value: 68.2 +/- 1.34%)
# Format: functional
# Conditions Used: time 5 hrs
Measurement Label: Activity (%)
Give a bare numeral; the unit % is implied.

In the examples that follow, each entry is paired with its recorded Activity.
Molecule	Activity [%]
CCN1C[C@]2(COC(=O)c3ccccc3NC(=O)c3ccccc3NC(=O)CC(C)C)CC[C@H](OC)C34C1C(C[C@@H]32)[C@@]1(O)C[C@H](OC)C2C[C@@H]4[C@@H]1[C@H]2OC(=O)c1ccccc1NC(=O)c1ccccc1NC(=O)CC(C)C	13
CCCCC(=O)Nc1ccccc1C(=O)Nc1ccccc1C(=O)OC[C@@]12CC[C@H](OC)C34C(C(C[C@@H]31)[C@@]1(O)C[C@H](OC)C3C[C@@H]4[C@@H]1[C@H]3OC(=O)c1ccccc1NC(=O)c1ccccc1NC(=O)CCCC)N(CC)C2	33
CCN1C[C@]2(COC(=O)c3ccccc3NC(=O)c3ccccc3NC(=O)C(C)(O)CC)CC[C@H](OC)C34C1C(C[C@@H]32)[C@@]1(O)C[C@H](OC)C2C[C@@H]4[C@@H]1[C@H]2OC(C)=O (some centres undefined)	62.1
CCN1C[C@]2(COC(=O)c3ccccc3NC(=O)c3ccccc3NC(=O)c3ccccc3)CC[C@H](OC)C34C1C(C[C@@H]32)[C@@]1(O)C[C@H](OC)C2C[C@@H]4[C@@H]1[C@H]2OC(=O)c1ccccc1NC(=O)c1ccccc1NC(=O)c1ccccc1	10.8
CCCCC(CC)C(=O)Nc1ccccc1C(=O)Nc1ccccc1C(=O)OC[C@@]12CC[C@H](OC)C34C(C(C[C@@H]31)[C@@]1(O)C[C@H](OC)C3C[C@@H]4[C@@H]1[C@H]3O)N(CC)C2 (some centres undefined)	6.5

q: What does the record list as Activity for CCCCC(=O)Nc1ccccc1C(=O)Nc1ccccc1C(=O)OC[C@@]12CC[C@H](OC)C34C(C(C[C@@H]31)[C@@]1(O)C[C@H](OC)C3C[C@@H]4[C@@H]1[C@H]3O)N(CC)C2 ?
a: 11.7

q: What does the record list as Activity for CCN1C[C@]2(COC(=O)c3ccccc3NC(=O)c3ccccc3NC(=O)CCCCl)CC[C@H](OC)C34C1C(C[C@@H]32)[C@@]1(O)C[C@H](OC)C2C[C@@H]4[C@@H]1[C@H]2O ?
a: 15.6

q: What does the record list as Activity for CCCCCC(=O)Nc1ccccc1C(=O)Nc1ccccc1C(=O)OC[C@@]12CC[C@H](OC)C34C(C(C[C@@H]31)[C@@]1(O)C[C@H](OC)C3C[C@@H]4[C@@H]1[C@H]3O)N(CC)C2 ?
a: 22.5

q: What does the record list as Activity for CCN1C[C@]2(COC(=O)c3ccccc3NC(=O)c3ccccc3NC(=O)C(C)Cl)CC[C@H](OC)C34C1C(C[C@@H]32)[C@@]1(O)C[C@H](OC)C2C[C@@H]4[C@@H]1[C@H]2O (some centres undefined) ?
a: 2.2

q: What does the record list as Activity for CCN1C[C@]2(COC(=O)c3ccccc3NC(=O)c3ccccc3NC(C)=O)CC[C@H](OC)C34C1C(C[C@@H]32)[C@@]1(O)C[C@H](OC)C2C[C@@H]4[C@@H]1[C@H]2OC(=O)c1ccccc1NC(=O)c1ccccc1NC(C)=O ?
a: 19.9

====

# System: SH-SY5Y
# Method Summary: Neuroprotective activity against H2O2-induced human SH-SY5Y cell damage assessed as protective rate at 50 uM pretreated for 1 hr followed by H2O2 addition measured after 4 hrs by MTT assay (reference value: 68.2 +/- 1.34%)
# Assay type: functional
# Conditions Used: time 5 hrs
Measurement Label: Activity (%)
Give a bare numeral; the unit % is implied.

In the examples that follow, each entry is paired with its recorded Activity.
CCN1C[C@]2(COC(=O)c3ccccc3NC(=O)c3ccccc3NC(=O)C(C)(C)O)CC[C@H](OC)C34C1C(C[C@@H]32)[C@@]1(O)C[C@H](OC)C2C[C@@H]4[C@@H]1[C@H]2O 77.4
CCN1C[C@]2(COC(=O)c3ccccc3NC(=O)c3ccccc3NC(=O)C(Cl)(Cl)Cl)CC[C@H](OC)C34C1C(C[C@@H]32)[C@@]1(O)C[C@H](OC)C2C[C@@H]4[C@@H]1[C@H]2O 14.5
CCO[C@]12C[C@H](OC)C3C[C@H]([C@@H]1[C@H]3O)C13C4C2C[C@@H]1[C@@](COC(=O)c1ccccc1NC(=O)c1ccccc1NC(=O)C(C)(C)O)(CC[C@@H]3OC)CN4CC 58.6

Kindly review the next compound as well.
q: What does the record list as Activity for CCN1C[C@]2(COC(=O)c3ccccc3NC(=O)c3ccccc3NC(=O)C(C)(C)O)CC[C@H](OC)C34C1C(C[C@@H]32)[C@@]1(O)C[C@H](OC)C2C[C@@H]4[C@@H]1[C@H]2OC(=O)c1ccccc1NC(=O)c1ccccc1NC(=O)C(C)(C)O ?
a: 12.4
